Biological target: 17β-HSD1 (Homo sapiens)
Experiment: 17β-HSD1 enzymatic assay (E1 to E2, LC-MS/MS)
Format: biochemical
Settings: 100 µM test concentration; read-out: 17β-HSD1 Inhibition (% ± SD)
Rule: true for inhibition at 100 µM not less than 70%, false for anything less.

Recorded results for 4 compounds are shown here.
{"compound": "C[C@@]12CC[C@@H]3c4cc(-c5ccccc5)c(O)cc4CC[C@H]3[C@@H]1CCC2=O", "category": "false"}
{"compound": "CC(C)(C)c1ccc(-c2cc(O)cc3c2[C@H]2CC[C@@]4(C)C(=O)CC[C@H]4[C@@H]2CC3)cc1 [14c]", "category": "true"}
{"compound": "C[C@@]12CC[C@@H]3c4ccc(O)c(-c5ccccc5)c4CC[C@H]3[C@@H]1CCC2=O [4-Ph, reference compound]", "category": "false"}
{"compound": "C[C@@]12CC[C@@H]3c4c(cc(O)cc4-c4ccc(Br)cc4)CC[C@H]3[C@@H]1CCC2=O [14b]", "category": "true"}

# input Does the reported inhibition at 100 µM for C[C@@]12CC[C@@H]3c4c(cc(O)cc4-c4ccccc4)CC[C@H]3[C@@H]1CCC2=O [14a] fall at or above the 70% mark?
# output true

---

Tested on: C33A
Test: MTT antiproliferative assay, C33A
Type: cell-based, human
Conditions: Homo sapiens, C-33-A, 10 µM, 72 h
reportedEndpoint: inhibition at 10 µM

Past entries and their recorded results:
{"compound": "CC(C)(C)c1ccc(-c2cc(O)cc3c2[C@H]2CC[C@@]4(C)C(=O)CC[C@H]4[C@@H]2CC3)cc1 [14c]", "subjectOfTest": "C33A", "observedResult": "25.4%"}
{"compound": "CN(C)C(=O)Oc1cc2c(c(-c3ccc(C(C)(C)C)cc3)c1)[C@H]1CC[C@@]3(C)C(=O)CC[C@H]3[C@@H]1CC2 [13c]", "subjectOfTest": "C33A", "observedResult": "41.1%"}
{"compound": "CCCCOC1(c2cc(=O)c3c(Oc4ccccc4)cc(O)cc3o2)C=CC(=O)C=C1 [17a]", "subjectOfTest": "C33A", "observedResult": "98.1%"}
{"compound": "C[C@@]12CC[C@@H]3c4c(cc(OCc5cn(Cc6ccccc6)nn5)cc4-c4ccc(Br)cc4)CC[C@H]3[C@@H]1CCC2=O [compound 16]", "subjectOfTest": "C33A", "observedResult": "< 10%"}
{"compound": "CCCCOC1(c2cc(=O)c3c(O)cc(O)cc3o2)C=CC(=O)C=C1 [compound 10, 1′-O-butyl protoapigenone, reference compound]", "subjectOfTest": "C33A", "observedResult": "98%"}

# input Return the recorded inhibition at 10 µM value; entry: C[C@@]12CC[C@@H]3c4c(cc(O)cc4-c4ccccc4)CC[C@H]3[C@@H]1CCC2=O [14a]
# output < 10%

# input Report inhibition at 10 µM for C[C@@]12CC[C@@H]3c4c(cc(O)cc4-c4ccc(Br)cc4)CC[C@H]3[C@@H]1CCC2=O [14b]
# output 28.7%

# input State its inhibition at 10 µM: CCCCOC1(c2cc(=O)c3c(Oc4ccc(Br)cc4)cc(O)cc3o2)C=CC(=O)C=C1 [17b]
# output 97.7%

# input Consider the compound CN(C)C(=O)Oc1cc2c(c(-c3ccccc3)c1)[C@H]1CC[C@@]3(C)C(=O)CC[C@H]3[C@@H]1CC2 [13a] and give its recorded inhibition at 10 µM.
# output < 10%

# input Assign inhibition at 10 µM to the following record: CCCCOC1(c2cc(=O)c3c(Oc4ccc(C(C)(C)C)cc4)cc(O)cc3o2)C=CC(=O)C=C1 [17c]
# output 97.9%

# input For the compound CN(C)C(=O)Oc1cc2c(c(-c3ccc(Br)cc3)c1)[C@H]1CC[C@@]3(C)C(=O)CC[C@H]3[C@@H]1CC2 [13b] , give its measured inhibition at 10 µM value.
# output < 10%

---

inhibition at 30 µM reference
Test system: SiHa
Test: MTT antiproliferative assay, SiHa
Format: cell-based, human
Conditions: Homo sapiens, SiHa, 30 µM, 72 h
The reply should contain only the number, in %.

Answered cases to consult:
{"compound": "CN(C)C(=O)Oc1cc2c(c(-c3ccc(Br)cc3)c1)[C@H]1CC[C@@]3(C)C(=O)CC[C@H]3[C@@H]1CC2 [13b]", "subjectOfTest": "SiHa", "inhibition at 30 µM / %": 40}
{"compound": "CC(C)(C)c1ccc(-c2cc(O)cc3c2[C@H]2CC[C@@]4(C)C(=O)CC[C@H]4[C@@H]2CC3)cc1 [14c]", "subjectOfTest": "SiHa", "inhibition at 30 µM / %": 99.6}
{"compound": "CCCCOC1(c2cc(=O)c3c(Oc4ccc(Br)cc4)cc(O)cc3o2)C=CC(=O)C=C1 [17b]", "subjectOfTest": "SiHa", "inhibition at 30 µM / %": 93.8}

# input Give the reported value of inhibition at 30 µM for this record: CN(C)C(=O)Oc1cc2c(c(-c3ccc(C(C)(C)C)cc3)c1)[C@H]1CC[C@@]3(C)C(=O)CC[C@H]3[C@@H]1CC2 [13c]
# output 101

---

Target chain: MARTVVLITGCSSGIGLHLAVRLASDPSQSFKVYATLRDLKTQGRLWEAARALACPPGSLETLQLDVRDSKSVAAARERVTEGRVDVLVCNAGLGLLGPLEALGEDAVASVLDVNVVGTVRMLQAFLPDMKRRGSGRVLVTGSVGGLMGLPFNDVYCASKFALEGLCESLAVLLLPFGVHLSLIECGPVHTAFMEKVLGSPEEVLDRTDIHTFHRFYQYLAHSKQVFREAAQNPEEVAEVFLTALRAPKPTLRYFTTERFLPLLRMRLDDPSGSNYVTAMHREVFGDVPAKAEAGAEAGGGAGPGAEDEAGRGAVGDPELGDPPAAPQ
reportedEndpoint: pIC50
The scale used: pIC50 is minus the common logarithm of the concentration in molar units.

# input For the molecule CC(C)(C)c1ccc(-c2cc(O)cc3c2[C@H]2CC[C@@]4(C)C(=O)CC[C@H]4[C@@H]2CC3)cc1 [14c] , give its measured pIC50 value.
# output 5.57

---

Property: inhibition at 10 µM; scope: individual compounds
Target: 17β-HSD1 (Homo sapiens)
Sequence (P14061 1-328): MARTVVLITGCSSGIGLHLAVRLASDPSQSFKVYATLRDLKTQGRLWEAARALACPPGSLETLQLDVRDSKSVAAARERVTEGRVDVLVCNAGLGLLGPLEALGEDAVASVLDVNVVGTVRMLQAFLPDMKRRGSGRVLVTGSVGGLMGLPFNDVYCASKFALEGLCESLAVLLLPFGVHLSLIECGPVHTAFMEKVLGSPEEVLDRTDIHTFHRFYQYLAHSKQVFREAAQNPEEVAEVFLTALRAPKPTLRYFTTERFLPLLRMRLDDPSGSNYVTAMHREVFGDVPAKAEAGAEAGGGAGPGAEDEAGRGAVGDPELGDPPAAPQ
Experiment: 17β-HSD1 enzymatic assay (E1 to E2, LC-MS/MS)
Assay type: biochemical
Details: 10 µM test concentration; read-out: 17β-HSD1 Inhibition (% ± SD)
Respond with the bare value in %.

{"compound": "C[C@@]12CC[C@@H]3c4ccc(O)c(-c5ccccc5)c4CC[C@H]3[C@@H]1CCC2=O [4-Ph, reference compound]", "inhibition at 10 µM [%]": 41.4}

# input Using the record for C[C@]12CC[C@H]3C(=CCc4cc(O)ccc43)[C@@H]1CCC2=O [Equilin, reference compound] , state its measured inhibition at 10 µM.
# output 85.9

# input State its inhibition at 10 µM: C[C@@]12CC[C@@H]3c4c(cc(O)cc4-c4ccccc4)CC[C@H]3[C@@H]1CCC2=O [14a]
# output 36.1

# input Indicate the recorded inhibition at 10 µM value for this compound: C[C@@]12CC[C@@H]3c4cc(-c5ccccc5)c(O)cc4CC[C@H]3[C@@H]1CCC2=O
# output 54

# input Read the entry C[C@@]12CC[C@@H]3c4c(cc(O)cc4-c4ccc(Br)cc4)CC[C@H]3[C@@H]1CCC2=O [14b] and write its reported inhibition at 10 µM.
# output 35.9

---

System: C33A
Test: MTT antiproliferative assay, C33A
Type: cell-based, human
Details: Homo sapiens, C-33-A, 72 h, read-out: calculated IC50 C33A
reportedEndpoint: IC50
// unit must come after the numeric part

Worked set:
{"compound": "CCCCOC1(c2cc(=O)c3c(Oc4ccccc4)cc(O)cc3o2)C=CC(=O)C=C1 [17a]", "subjectOfTest": "C33A", "reportedEndpoint": "IC50", "observedResult": "430 nM"}
{"compound": "CC(C)(C)c1ccc(-c2cc(O)cc3c2[C@H]2CC[C@@]4(C)C(=O)CC[C@H]4[C@@H]2CC3)cc1 [14c]", "subjectOfTest": "C33A", "reportedEndpoint": "IC50", "observedResult": "14400 nM"}
{"compound": "CN(C)C(=O)Oc1cc2c(c(-c3ccc(C(C)(C)C)cc3)c1)[C@H]1CC[C@@]3(C)C(=O)CC[C@H]3[C@@H]1CC2 [13c]", "subjectOfTest": "C33A", "reportedEndpoint": "IC50", "observedResult": "10100 nM"}
{"compound": "CCCCOC1(c2cc(=O)c3c(O)cc(O)cc3o2)C=CC(=O)C=C1 [compound 10, 1′-O-butyl protoapigenone, reference compound]", "subjectOfTest": "C33A", "reportedEndpoint": "IC50", "observedResult": "970 nM"}
{"compound": "CCCCOC1(c2cc(=O)c3c(Oc4ccc(Br)cc4)cc(O)cc3o2)C=CC(=O)C=C1 [17b]", "subjectOfTest": "C33A", "reportedEndpoint": "IC50", "observedResult": "520 nM"}

# input Recall and state the measured IC50 for CCCCOC1(c2cc(=O)c3c(Oc4ccc(C(C)(C)C)cc4)cc(O)cc3o2)C=CC(=O)C=C1 [17c] .
# output 390 nM
